test system: NOMO1; assay: cell viability relative to DMSO control; higher = less cytotoxic; details: RPMI 5 mM glucose + 10% dialyzed FBS; 48 h; 0.569 µM
Listed here: items and their measured cell viability.
Quick reminder: number only, in %, skip the unit.

Consider the reported cell viability for these compounds:
{"COMPOUND": "Clc1cc(Cl)cc(CNc2ncncc2-c2ccc3c(c2)OCO3)c1", "QUANTITATIVE RESULT": 84.2}
{"COMPOUND": "COc1cc2c(Nc3ccc(Cl)c(Cl)c3F)ncnc2cc1OC[C@@H]1C[C@@H]2CN(C)C[C@@H]2C1", "QUANTITATIVE RESULT": 112}

The compound listed as CCN(CC)CCCCNc1nc2cc(Cl)c(Cl)cc2nc1-c1ccc(-c2cccs2)s1 has a reported cell viability of 114

The compound listed as CCNC(=O)c1cc2c(-c3cc(OCCN4CCCC4)c(Cl)cc3Cl)nc(N)nc2s1 has a reported cell viability of 93.2

The compound listed as C[S+](=O)([O-])N(Cc1ccco1)CC(O)Cn1c2ccccc2c2ccccc21 (stereo not given) has a reported cell viability of 97.8

The compound listed as CC(=O)NC(CS)C(=O)O (stereo not given) has a reported cell viability of 85.6

The compound listed as CCC1(c2ccc(N)cc2)CCC(=O)NC1=O (stereo not given) has a reported cell viability of 107

====

test system: SEM cells; assay: cell viability relative to DMSO control; higher = less cytotoxic; details: RPMI 5 mM glucose + 10% dialyzed FBS; 48 h; 5.12 µM
MEASURED ATTRIBUTE: cell viability (%)
Quick reminder: number only, in %, skip the unit.

{"MOLECULE SMILES": "Cc1c(Cn2c(C)nc3c(C(=O)O)cc(N4CCOCC4)cc32)cccc1C(F)(F)F", "cell viability / %": 90.1}
{"MOLECULE SMILES": "CC(C)(C)c1cc(C=C(C#N)C#N)cc(Br)c1O", "cell viability / %": 105}
{"MOLECULE SMILES": "CC(=O)OCC(=O)[C@@]12\\N=C(C)/O[C@@H]1C[C@H]3[C@@H]4CCC/5=C/C(=O)/C=C\\[C@]5(C)[C@H]4[C@@H](O)C[C@]23C", "cell viability / %": 86.8}
{"MOLECULE SMILES": "CN1\\C(=C(\\O)C2=C(C=CS2)[S+]1([O-])=O)C(=O)NC3=CC=CC=N3", "cell viability / %": 106}
{"MOLECULE SMILES": "C\\C1=C\\N([C@H]2C[C@H](N=[N+]=[N-])[C@@H](CO)O2)C(=O)NC1=O", "cell viability / %": 93.2}

The compound listed as C[C@@H]1COCCN1C\2=C\C(=O)N\3CC[C@H](N(CC4=CN=CC(=C4)Cl)C3=N2)C(F)(F)F has a reported cell viability of 71.2

The compound listed as CC\1=C(C(=O)N(\C=C1)C2=CC=C(C=C2)C3=NC=CO3)/C4=CC5=CN=C(N)N=C5C=C4 has a reported cell viability of 26.1

====

system: SEM cells; assay: AUC of viability dose-response curve (% viability x log10 dose units); higher = less sensitive; settings: RPMI 5 mM glucose + 10% dialyzed FBS; 48 h
Hi! Just check whether AUC of viability dose-response curve is below 400. Below gives 1 (yes), equal or above gives 0 (no).

{"COMPOUND": "O=C(Nc1nc2ccccc2n1CCN1CCOCC1)c1cccc([N+](=O)[O-])c1", "MEASURED ON": "SEM cells", "ASSIGNED CATEGORY": "0 (no)"}
{"COMPOUND": "CC(C)[C@@H](C[S+](=O)([O-])C(C)C)N1C(=O)[C@@](C)(CC(=O)O)C[C@H](c2cccc(Cl)c2)[C@H]1c1ccc(Cl)cc1", "MEASURED ON": "SEM cells", "ASSIGNED CATEGORY": "1 (yes)"}
{"COMPOUND": "CC[C@H]1/C=C\\C=C/C[C@@H](C)[C@H](O)[C@@](C)(O)C(=O)[C@@H](C)[C@H](O)[C@@H](C)C(=O)[C@@H](C)[C@H](O)[C@@H](C)/C=C/C(=O)O[C@@H]2[C@H](C)[C@H](CC1)O[C@]1(CC[C@H](C)[C@H](C[C@@H](C)O)O1)[C@H]2C", "MEASURED ON": "SEM cells", "ASSIGNED CATEGORY": "1 (yes)"}
{"COMPOUND": "CN(C)CCc1c[nH]c2ccc(C[C@H]3COC(=O)N3)cc12", "MEASURED ON": "SEM cells", "ASSIGNED CATEGORY": "1 (yes)"}
{"COMPOUND": "CC(=O)C\\1=C(/C)C2=CN=C(NC3=CC=C(C=N3)N4CCNCC4)N=C2N(C5CCCC5)C1=O", "MEASURED ON": "SEM cells", "ASSIGNED CATEGORY": "1 (yes)"}
{"COMPOUND": "COc1cc2nc(N3CCCN(C)CC3)nc(NC3CCN(Cc4ccccc4)CC3)c2cc1OC", "MEASURED ON": "SEM cells", "ASSIGNED CATEGORY": "0 (no)"}

Exam item: # TODO verify AUC of viability dose-response curve < 400 strictly for this compound: C[C@@H](O)[C@@H]1[C@H]2[C@@H](C)\C(=C(/N2C1=O)C(=O)OCOC(=O)C(C)(C)C)SC3CN(C3)/C4=N/CCS4
Marked response: 0 (no)

Exam item: # TODO verify AUC of viability dose-response curve < 400 strictly for this compound: CC1(C)CCC(=C(CN2CCN(CC2)C3=CC=C(C=C3)C(=O)N[S+]([O-])(=O)C4=CC(=C(N[C@H](CCN5CCOCC5)CSC6=CC=CC=C6)C=C4)[S+]([O-])(=O)C(F)(F)F)\C1)/C7=CC=C(Cl)C=C7
Marked response: 1 (yes)

Exam item: # TODO verify AUC of viability dose-response curve < 400 strictly for this compound: O=C(Nc1cccc(Nc2ncc(Br)c(NCCc3cnc[nH]3)n2)c1)N1CCCC1
Marked response: 1 (yes)

Exam item: # TODO verify AUC of viability dose-response curve < 400 strictly for this compound: Cc1nccn1CC1CCc2c(c3ccccc3n2C)C1=O (stereo not given)
Marked response: 0 (no)

Exam item: # TODO verify AUC of viability dose-response curve < 400 strictly for this compound: CCOc1ccc(Nc2nc(-c3c(C)nc4ccccn34)cs2)cc1
Marked response: 1 (yes)

====

system: P12-Ichikawa; assay: AUC of viability dose-response curve (% viability x log10 dose units); higher = less sensitive; conditions: RPMI 5 mM glucose + 10% dialyzed FBS; 48 h
MEASURED ATTRIBUTE: AUC of viability dose-response curve
Enter the number alone.

Consider the reported AUC of viability dose-response curve for these compounds:
{"COMPOUND": "NC(=O)c1ncn([C@@H]2O[C@H](CO)[C@@H](O)[C@H]2O)n1", "MEASURED ATTRIBUTE": "AUC of viability dose-response curve", "QUANTITATIVE RESULT": 423}
{"COMPOUND": "CC1(C)OC2CC3C4CC(F)C/5=C/C(=O)/C=C\\C5(C)C4C(O)CC3(C)[C@@]2(O1)C(=O)CO (stereo not given in full)", "MEASURED ATTRIBUTE": "AUC of viability dose-response curve", "QUANTITATIVE RESULT": 325}
{"COMPOUND": "Cc1cccc(C)c1OCC(=O)N[C@@H](Cc1ccccc1)[C@@H](O)C[C@H](Cc1ccccc1)NC(=O)[C@H](C(C)C)N1CCCNC1=O", "MEASURED ATTRIBUTE": "AUC of viability dose-response curve", "QUANTITATIVE RESULT": 414}

The compound listed as CC(=O)NC(CS)C(=O)O (stereo not given) has a reported AUC of viability dose-response curve of 359

The compound listed as CC1(C)C(=O)N(CCN2CCC(C(=O)c3ccc(F)cc3)CC2)c2ccccc21 has a reported AUC of viability dose-response curve of 462

====

system: NOMO1; assay: cell viability relative to DMSO control; higher = less cytotoxic; details: HPLM + 10% dialyzed FBS; 48 h; 0.00234 µM
MEASURED ATTRIBUTE: cell viability (%)
Quick reminder: number only, in %, skip the unit.

Consider the reported cell viability for these compounds:
{"MOLECULE SMILES": "OC(=O)\\C1=C\\N(C2=CC=C(F)C=C2)C3=C(C=C(F)C(=C3)N4CCNCC4)C1=O", "cell viability, %": 99.1}
{"MOLECULE SMILES": "CN(C)C(=O)c1ccc([S+](=O)([O-])c2ccc(NC(=O)[C@@](C)(O)C(F)(F)F)c(Cl)c2)cc1", "cell viability, %": 104}
{"MOLECULE SMILES": "CC(C)n1nc(-c2ccc3oc(N)nc3c2)c2c(N)ncnc21", "cell viability, %": 75.9}

Kindly consider the entry below.
Noted cell viability for CC(C)Oc1cc(Nc2nc(N[C@@H](C)c3ccc(F)cn3)ncc2Cl)n[nH]1 , tested on NOMO1: 113
